study-system: Cytochrome P450 2C9 (Homo sapiens) (UniProt P11712)
Sequence (P11712 whole entry, looked up): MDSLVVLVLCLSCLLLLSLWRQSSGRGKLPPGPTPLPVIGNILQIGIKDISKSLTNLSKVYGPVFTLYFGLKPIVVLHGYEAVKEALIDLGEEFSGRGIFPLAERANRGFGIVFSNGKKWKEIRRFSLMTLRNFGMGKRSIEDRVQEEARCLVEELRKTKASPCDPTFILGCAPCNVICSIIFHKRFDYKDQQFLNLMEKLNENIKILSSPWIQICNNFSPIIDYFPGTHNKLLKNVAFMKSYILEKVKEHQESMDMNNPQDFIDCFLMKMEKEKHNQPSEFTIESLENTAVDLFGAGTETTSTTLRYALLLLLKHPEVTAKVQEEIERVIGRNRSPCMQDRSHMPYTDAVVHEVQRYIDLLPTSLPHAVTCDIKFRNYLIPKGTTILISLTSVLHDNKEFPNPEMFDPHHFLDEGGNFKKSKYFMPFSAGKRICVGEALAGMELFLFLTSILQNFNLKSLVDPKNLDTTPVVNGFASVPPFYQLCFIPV
test: Cytochrome P450 Family 2 Subfamily C Member 9 (CYP2C9) small molecule antagonists: luciferase reporter qHTS assay (AID 1671198); also: nearly all actives have a fitted effect of over 50% in size
run-parameters: P450-Glo CYP2C9 enzyme assay, luciferin luminescence; series mostly up to 115 µM
Records with an inconclusive call do not appear. Calls of active or inactive are those of the source. Calls follow the shape of the dose curve; as a rule, active = well fitted inhibition curve with a large enough effect in the repeat runs; inconclusive = weak or mixed curves; inactive = no such curve, though single readings can be large or run the other way.
Outcomes you can answer with include only these: active, inactive

O=S(=O)(O)c1ccc(N=Nc2c(O)ccc3ccccc23)cc1 : active

What outcome does the record of this test show for CCCCNS(=O)(=O)c1ccc(C)cc1 ?
active

What outcome does the record of this test show for O=c1oc2cc(O)ccc2c2oc3cc(O)ccc3c12 ?
active

What outcome does the record of this test show for CCOc1ccc2ccccc2c1C(=O)N[C@@H]1C(=O)N2[C@@H]1SC(C)(C)[C@@H]2C(=O)O ?
inactive

What outcome does the record of this test show for CN(C)C(=O)COC(=O)Cc1ccc(OC(=O)c2ccc(N=C(N)N)cc2)cc1 ?
inactive

---

study-system: Estrogen receptor (Homo sapiens)
test: qHTS assay to identify small molecule agonists of the estrogen receptor alpha (ER-alpha) signaling pathway using the BG1 cell line (AID 743079); also: nearly all actives have a fitted effect of over 20% in size; as to activation: % is scaled to controls: 0 for no effect and ±100 for the full control effect
run-parameters: BG1Luc4E2 cells, ERE-luciferase agonist, 22 h; series mostly up to 70.3 µM
Inconclusive results are not listed. Calls of active or inactive are those of the source. The call rests on the fitted dose curve; in most records, active means well fitted activation curve with a large enough effect in the repeat runs; inconclusive means weak or mixed curves, or effect the other way; inactive means no such curve, though single readings can be large or run the other way.
Outcomes you can answer with include only these: active, inactive

What outcome does the record of this test show for C#C[C@]1(O)CC[C@H]2[C@@H]3[C@H](C)CC4=C(CCC(=O)C4)[C@H]3CC[C@@]21C ?
active

What outcome does the record of this test show for Cc1cc(C)c(/C=C2\C(=O)Nc3ccccc32)[nH]1 ?
inactive

What outcome does the record of this test show for Cc1cccc(C(=O)O)c1O ?
inactive

What outcome does the record of this test show for CC(C)(C)C1CCC(=O)CC1 ?
inactive

What outcome does the record of this test show for Clc1ccnc(Cl)n1 ?
inactive

---

study-system: Cytochrome P450 3A4 (Homo sapiens)
test: Cytochrome P450 Family 3 Subfamily A Member 4 (CYP3A4) small molecule antagonists: luciferase reporter qHTS assay (AID 1671201); also: nearly all actives have a fitted effect of over 50% in size
run-parameters: P450-Glo CYP3A4 enzyme, luciferin luminescence, 1 h; series mostly up to 115 µM
Results filed as inconclusive are left out. Calls of active or inactive are those of the source. Calls come from the whole dose curve; as a rule, active = well fitted inhibition curve with a large enough effect in the repeat runs; inconclusive = weak or mixed curves; inactive = no such curve, though single readings can be large or run the other way.
Outcomes you can answer with include only these: active, inactive

Sc1nc2ccccc2s1 : inactive
COC(=O)c1ccccc1OC : inactive
C=Cc1ccccc1C=C : inactive
CCCCCCCCCCCCCC[N+](C)(C)Cc1ccccc1 : inactive
COc1cc(/C=C/c2ccccc2)oc(=O)c1 : active

What outcome does the record of this test show for CC(C)(C)c1csc(-c2cc3cc(OCc4ccccc4CC(=O)O)ccc3o2)n1 ?
inactive

What outcome does the record of this test show for O=c1[nH]c(=O)n([C@H]2C[C@H](O)[C@@H](CO)O2)cc1F ?
inactive

---

study-system: Nuclear receptor subfamily 1 group I member 2 (Rattus norvegicus) (UniProt Q9R1A7)
Sequence (Q9R1A7 whole entry, looked up): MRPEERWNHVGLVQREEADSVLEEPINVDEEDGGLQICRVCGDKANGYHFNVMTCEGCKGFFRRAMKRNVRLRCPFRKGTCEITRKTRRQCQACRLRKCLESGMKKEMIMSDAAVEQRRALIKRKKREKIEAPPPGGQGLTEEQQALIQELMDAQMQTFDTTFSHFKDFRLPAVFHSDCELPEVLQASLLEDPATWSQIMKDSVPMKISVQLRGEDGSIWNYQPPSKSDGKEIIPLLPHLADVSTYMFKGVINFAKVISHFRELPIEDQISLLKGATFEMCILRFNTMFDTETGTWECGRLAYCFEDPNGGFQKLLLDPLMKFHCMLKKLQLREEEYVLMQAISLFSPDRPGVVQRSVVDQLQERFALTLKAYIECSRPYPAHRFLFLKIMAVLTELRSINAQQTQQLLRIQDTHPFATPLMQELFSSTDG
test: Rat pregnane X receptor (rPXR) activation by small molecules, qHTS assay (AID 1346983); also: % is scaled to controls: 0 for no effect and ±100 for the full control effect; nearly all actives have a fitted effect of over 20% in size
run-parameters: rPXR luciferase reporter cells, One-Glo luminescence, 24 h; active compounds read high
Inconclusive results are not listed.
Recorded max activation by entry
Give the quantity in %, number only.

Known max activation results, listed for orientation:
Nc1ccc(C(=O)O)c(O)c1 : -0.56
C#C[C@]1(OC(C)=O)CC[C@H]2[C@@H]3CCC4=C[C@@H](OC(C)=O)CC[C@@H]4[C@H]3CC[C@@]21C : 3.89
CC(C(=O)O)c1ccc2c(c1)[nH]c1ccc(Cl)cc12 (configuration not stated) : -1.86
Cc1cc(C(C)(C)C)cc(C)c1CC1=NCCN1 : -6.02
Cc1c(F)c(N2CCNC(C)C2)cc2c1c(=O)c(C(=O)O)cn2C1CC1 (configuration not stated) : -0.343
O=C1CCc2ccc(OCCCCN3CCN(c4cccc(Cl)c4Cl)CC3)cc2N1 : -4.05

Name the recorded max activation for C[C@@H](O)[C@H](N)C(=O)O .
-1.79

Name the recorded max activation for Nc1nc(N)nc(-c2cc(Cl)ccc2Cl)n1 .
-2.66

---

test: qHTS assay to identify small molecule antagonists of the estrogen related receptor (ERR) signaling pathway from Tox21 library - cell viability counter screen (AID 1224834); also: nearly all actives have a fitted effect of over 30% in size
run-parameters: ERR reporter cells viability, CellTiter-Fluor, 17.5 h; series mostly up to 92.4 µM
Inconclusive results are not listed. The source made the active and inactive calls. Calls come from the whole dose curve; as a rule, active = well fitted cell-killing curve with a large enough effect in the repeat runs; inconclusive = weak or mixed curves; inactive = flat fitted curve, though single readings scatter.
Outcomes you can answer with include only these: t = active, f = inactive

Would you please look over these solved cases?
CCCCCCCCCCC[C@@H](C[C@@H]1OC(=O)[C@H]1CCCCCC)OC(=O)[C@H](CC(C)C)NC=O : f
Cc1c(C)c2c(c(C)c1O)CC[C@@](C)(CCC[C@H](C)CCC[C@H](C)CCCC(C)C)O2 : f
CCN(CC)c1ccc2c(-c3ccc(S(=O)(=O)O)cc3S(=O)(=O)[O-])c3ccc(=[N+](CC)CC)cc-3oc2c1 : t
OC1CCC(C2CCCCC2)CC1 (stereo unspecified) : f
OC[C@H]1O[C@H](O[C@H]2O[C@H](CO)[C@@H](O)[C@H](O)[C@H]2O)[C@H](O)[C@@H](O)[C@@H]1O : f
CC1=Nc2ccccc2C1(C)C : f
CCCCCCCCCCOC(=O)c1ccccc1C(=O)OCCCCCCCC : f
CNC(=O)c1ccccc1Sc1ccc2c(/C=C/c3ccccn3)n[nH]c2c1 : t

What outcome does the record of this test show for CC(C)OC(=O)C(O)(CC(=O)O)CC(=O)O ?
f

What outcome does the record of this test show for O=C1C(c2[nH]c3ccc(S(=O)(=O)O)cc3c2O)=Nc2ccc(S(=O)(=O)O)cc21 ?
f

What outcome does the record of this test show for CCCCCCCCCCCCOCCOCCOCCOCCOCCOCCOCCOCCOCCO ?
t

What outcome does the record of this test show for Nc1nc(-c2ccccc2)cs1 ?
f

What outcome does the record of this test show for NC(=S)NC(N)=S ?
f

---

study-system: Estrogen receptor (Homo sapiens)
test: qHTS assay to identify small molecule antagonists of the estrogen receptor alpha (ER-alpha) signaling pathway (AID 743069)
run-parameters: HEK293 ER-alpha-UAS-bla, beta-lactamase ratio, antagonist mode; series mostly up to 69.4 µM
Results filed as inconclusive are left out. The source made the active and inactive calls. The call rests on the fitted dose curve; in most records, active means well fitted curve in the direction sought with a large enough effect in the signal ratio in the repeat runs (not every such curve was filed as active); inconclusive means weak or mixed curves, or effect the other way; inactive means no such curve, though single readings can be large or run the other way; the % refers to the signal ratio.
Outcomes you can answer with include only these: Y = active, N = inactive

Would you please look over these solved cases?
COC(=O)c1ccccc1C : N
CC[N+](CC)(CC)CCOC(=O)C(C1CCCC1)C1CCCC1 : N
CC(=O)Oc1cc2c(s1)CCN(C(C(=O)C1CC1)c1ccccc1F)C2 (stereo unspecified) : N
CCN(CC)c1ccc2c(-c3ccc(S(=O)(=O)O)cc3S(=O)(=O)[O-])c3ccc(=[N+](CC)CC)cc-3oc2c1 : N
CN1CCN(Cc2cc(-c3ccc4[nH]c(=O)oc4c3)co2)[C@@H](c2ccc(F)cc2)C1 : Y
Clc1ccnc(Cl)n1 : N
C[Si](Cl)(c1ccccc1)c1ccccc1 : N
CCN(CCN)c1cccc(C)c1 : N
CN(C)c1ccc(C(=C2C=CC(=[N+](C)C)C=C2)c2ccc(N(C)C)cc2)cc1 : Y
NC(=S)NC(N)=S : N

What outcome does the record of this test show for OC1CCC(C2CCCCC2)CC1 (stereo unspecified) ?
N

---

test: qHTS RealTime-Glo MT Cell Viability Assay in HepG2 cells - 40 hour (AID 1224870); also: % is scaled to controls: 0 for no effect and ±100 for the full control effect; nearly all actives have a fitted effect of over 50% in size
run-parameters: RealTime-Glo luminescence; series mostly up to 76.8 µM
Records with an inconclusive call do not appear. Activity calls are given as the source filed them. Calls come from the whole dose curve; as a rule, active = well fitted cell-killing curve with a large enough effect in the repeat runs; inconclusive = weak or mixed curves, or effect the other way; inactive = flat fitted curve, though single readings scatter.
Outcomes you can answer with include only these: yes (1) = active, no (0) = inactive

What outcome does the record of this test show for O=[N+]([O-])c1ccc(F)c(Cl)c1 ?
no (0)

What outcome does the record of this test show for OC[C@H]1O[C@H](O[C@H]2O[C@H](CO)[C@@H](O)[C@H](O)[C@H]2O)[C@H](O)[C@@H](O)[C@@H]1O ?
no (0)

What outcome does the record of this test show for c1ccc(C(O[C@@H]2CCCN(CCc3ccc4c(c3)OCO4)C2)c2ccccc2)cc1 ?
no (0)

What outcome does the record of this test show for O=C(O)c1cc(=O)c2ccccc2o1 ?
no (0)

What outcome does the record of this test show for Nc1cc(Cl)c(O)c(Cl)c1 ?
no (0)

---

test: qHTS assay to identify small molecule HDAC inhibitors (AID 1259364);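 also: wild-type HCT-116 cells with endogenous class I/II HDAC activity; top concentration of the series differs between compounds; % is scaled to controls: 0 for no effect and ±100 for the full control effect; nearly all actives have a fitted effect of over 45% in size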
run-parameters: HCT-116 HDAC-Glo I/II luminescence, 2 h; series mostly up to 92.4 µM
Inconclusive results are not listed. The source made the active and inactive calls. Calls follow the shape of the dose curve; as a rule, active = well fitted inhibition curve with a large enough effect in the repeat runs; inconclusive = weak or mixed curves; inactive = flat fitted curve, though single readings scatter.
Outcomes you can answer with include only these: y for active, n for inactive

CCCCCCCCCCCCOC(=O)c1ccc(O)cc1 : n

What outcome does the record of this test show for C#Cc1ccc(-c2ccccc2F)cc1 ?
n

What outcome does the record of this test show for CNc1ccc([N+](=O)[O-])cc1 ?
n

---

test: qHTS assay to identify small molecule agonists of the progesterone receptor (PR) signaling pathway - cell viability counter screen (AID 1346799); also: nearly all actives have a fitted effect of over 45% in size
run-parameters: PR-UAS-bla HEK293T viability, CellTiter-Glo luminescence, 16 h; series mostly up to 92.4 µM
Results filed as inconclusive are left out. The source made the active and inactive calls. Calls follow the shape of the full dose curve.
Outcomes you can answer with include only these: active, inactive

C=Cc1ccccc1C=C : inactive
COc1cc(C)ccc1O : inactive

What outcome does the record of this test show for CC[C@H](C)COC(=O)/C=C/c1ccc(N=Cc2ccc(OC)cc2)cc1 ?
inactive

What outcome does the record of this test show for CCCCCCOC(=O)C(C)CC (stereo unspecified) ?
inactive

What outcome does the record of this test show for CC1(C)CC(O)CC(C)(C)N1 ?
inactive

What outcome does the record of this test show for CC1=CCC(=C(C)C)CC1 ?
inactive

What outcome does the record of this test show for O=C1NC(=O)[C@@H]2CC=CC[C@H]12 ?
active

What outcome does the record of this test show for CCCCCCC1CCCC(=O)O1 (stereo unspecified) ?
inactive

What outcome does the record of this test show for Cc1ccc(N/N=c2\c(=O)cc/c(=N\Nc3ccc(S(=O)(=O)O)cc3)c2=O)c(C)c1 ?
inactive

What outcome does the record of this test show for OCCN1CCN(CCCN2c3ccccc3Sc3ccc(C(F)(F)F)cc32)CC1 ?
active

What outcome does the record of this test show for O=c1oc2cc(O)ccc2c2oc3cc(O)ccc3c12 ?
inactive

What outcome does the record of this test show for Cc1cccc(C)c1NC(=O)c1ccc(N)cc1 ?
inactive

What outcome does the record of this test show for CC1(C)CCC[C@]2(C)[C@H]3CC(=O)O[C@]3(C)CC[C@@H]12 ?
inactive

What outcome does the record of this test show for CCC(=O)OC(=O)CC ?
active

What outcome does the record of this test show for Nc1cc(Cl)c(O)c(Cl)c1 ?
inactive

What outcome does the record of this test show for NC(=O)c1cccc([N+](=O)[O-])c1 ?
inactive

What outcome does the record of this test show for Cc1cc(C(C)(C)C)cc(C)c1CC1=NCCN1 ?
inactive

What outcome does the record of this test show for CN(C)C(=O)COC(=O)Cc1ccc(OC(=O)c2ccc(N=C(N)N)cc2)cc1 ?
inactive

What outcome does the record of this test show for [Cu+] ?
inactive

What outcome does the record of this test show for C#Cc1ccc(-c2ccccc2F)cc1 ?
inactive

What outcome does the record of this test show for C=CC(C)(CCC=C(C)C)OC=O (stereo unspecified) ?
inactive
